Test system: RSV A2
Assay: Inhibition of virus infectivity in vivo, lung virus titers in BALB/c mice
Conditions: all experiments at the 500 μg/dose
Binary call on average reduction in virus load: true (1) from 1 log10 upward, false (0) beneath that.

In [3]: df
Out[3]:
                           ordered_residues  experimental_target      group
0  PAVVFVTRKNRQVC (listed as Homo sapiens) [Peptide 6, CCL5 amino acids 37-50]               RSV A2  false (0)
1  TPCCFAYIARPLPRA (listed as Homo sapiens) [Peptide 2, CCL5 amino acids 8-22]               RSV A2  false (0)
2  TRKNRQVCANPEKKW (listed as Homo sapiens) [Peptide 7, CCL5 amino acids 43-57]               RSV A2   true (1)
3  EKKWVREYINSLEMS (listed as Homo sapiens) [Peptide 9, CCL5 amino acids 54-68]               RSV A2   true (1)
4  AHIKEYFYTSGKCSN (listed as Homo sapiens) [Peptide 4, CCL5 amino acids 22-36]               RSV A2   true (1)
